Test system: IL-γ
Assay: Cytokine assay: IFNγ (IL-γ [sic]) release, PHA-induced PBMC
Assay type: cell-based
Settings: human PBMC, 20 ug/mL PHA, 24 hours
Recorded Metric: IC50 (nM)

Example results:
Smiles Record	Target System	Endpoint Unit	IC50
CN(c1ccc(C#N)cc1)c1ccc2c(c1)COB2O	IL-γ	nM	2000
COc1nc(N(C(=O)OC(C)(C)C)c2ccc3c(c2)COB3O)ccc1C#N	IL-γ	nM	370

(1) COc1nc(Nc2ccc3c(c2)COB3O)ccc1C#N
(2) N#Cc1ccc(Nc2ccc3c(c2)COB3O)cc1
(3) CC(C)(C)OC(=O)N(c1ccc(C#N)cc1)c1ccc2c(c1)COB2O
Query :: Output the entries ranked by IC50 from maximum down to minimum. Sort the labels as requested; that list is your answer.
Result :: 2, 3, 1
(2: 1510 nM, 3: 620 nM, 1: 300 nM)
